ASSAY PROCEDURE: Plasma pharmacokinetics after single ascending doses (SAD), phase 1
Type: in vivo, human (healthy adult participants)
CONDITION DESCRIPTION: human, single 1-h IV infusion 50 mg, plasma, apparent terminal half-life, n = 6, arithmetic mean ± SD
Where a SMILES comes first, the peptide text is derived from it. Bridges are numbered along the chain shown (N, C = ends). [ ]: non-standard residue; d: D form. The star is where a group is joined. X1 = O=C(c1ccc(Cl)cc1Cl)*; Dab = NCC[C@H](N)C(=O)O; Abu = CC[C@H](N)C(=O)O; Dap = NC[C@H](N)C(=O)O
PROPERTY LABEL: half-life

1. CC[C@@H]1NC(=O)[C@@H](CC(C)C)NC(=O)[C@H](CCN)NC(=O)[C@@H](NC(=O)[C@H](CN)NC(=O)[C@@H](NC(=O)[C@H](CCN)NC(=O)c2ccc(Cl)cc2Cl)[C@@H](C)O)CCNC(=O)[C@H]([C@@H](C)O)NC(=O)[C@H](CCN)NC(=O)[C@H](CCN)NC1=O [BRII-693] (X1-[Dab]T[Dap][Dab][Dab][dL][Abu][Dab][Dab]T; lactam 4-C; N-terminus assumed) | 3.2 h

====

ASSAY PROCEDURE: Plasma pharmacokinetics after multiple ascending doses (MAD), phase 1
Assay type: in vivo, human (healthy adult participants)
CONDITION DESCRIPTION: human, plasma, iv, 150 mg, First q6h dose (day 1), 14-day MAD 150 mg q6h × 14, non-Chinese, plasma, n = 10, arithmetic mean ± SD
Where a SMILES comes first, the peptide text is derived from it. Bridges are numbered along the chain shown (N, C = ends). [ ]: non-standard residue; d: D form. The star is where a group is joined. X1 = O=C(c1ccc(Cl)cc1Cl)*; Dab = NCC[C@H](N)C(=O)O; Abu = CC[C@H](N)C(=O)O; Dap = NC[C@H](N)C(=O)O
PROPERTY LABEL: Cmax (ng/mL)

1. CC[C@@H]1NC(=O)[C@@H](CC(C)C)NC(=O)[C@H](CCN)NC(=O)[C@@H](NC(=O)[C@H](CN)NC(=O)[C@@H](NC(=O)[C@H](CCN)NC(=O)c2ccc(Cl)cc2Cl)[C@@H](C)O)CCNC(=O)[C@H]([C@@H](C)O)NC(=O)[C@H](CCN)NC(=O)[C@H](CCN)NC1=O [BRII-693] (X1-[Dab]T[Dap][Dab][Dab][dL][Abu][Dab][Dab]T; lactam 4-C; N-terminus assumed) | 9200

====

ASSAY PROCEDURE: Plasma pharmacokinetics after multiple ascending doses (MAD), phase 1
Assay type: in vivo, human (healthy adult participants)
CONDITION DESCRIPTION: human, plasma, iv, 100 mg, Last q6h dose (day 9), 7-day MAD 100 mg q6h × 7, n = 6, arithmetic mean ± SD; read-out: VZ
Where a SMILES comes first, the peptide text is derived from it. Bridges are numbered along the chain shown (N, C = ends). [ ]: non-standard residue; d: D form. The star is where a group is joined. X1 = O=C(c1ccc(Cl)cc1Cl)*; Dab = NCC[C@H](N)C(=O)O; Abu = CC[C@H](N)C(=O)O; Dap = NC[C@H](N)C(=O)O
PROPERTY LABEL: Vd (L)

1. CC[C@@H]1NC(=O)[C@@H](CC(C)C)NC(=O)[C@H](CCN)NC(=O)[C@@H](NC(=O)[C@H](CN)NC(=O)[C@@H](NC(=O)[C@H](CCN)NC(=O)c2ccc(Cl)cc2Cl)[C@@H](C)O)CCNC(=O)[C@H]([C@@H](C)O)NC(=O)[C@H](CCN)NC(=O)[C@H](CCN)NC1=O [BRII-693] (X1-[Dab]T[Dap][Dab][Dab][dL][Abu][Dab][Dab]T; lactam 4-C; N-terminus assumed) | 38.4

Where do the numbers come from? From paper PMC11784026.
